Kindly supply the reported Potentiation of GABA (fold) values for the records listed here.
Target: human GABAB1 and GABAB2 receptor subunits (Homo sapiens, UniProt O75899+Q9UBS5)
Construct: expressed in transfected cells; host or cells: CHO cells
Sequence (Q9UBS5 15-961 limits assumed): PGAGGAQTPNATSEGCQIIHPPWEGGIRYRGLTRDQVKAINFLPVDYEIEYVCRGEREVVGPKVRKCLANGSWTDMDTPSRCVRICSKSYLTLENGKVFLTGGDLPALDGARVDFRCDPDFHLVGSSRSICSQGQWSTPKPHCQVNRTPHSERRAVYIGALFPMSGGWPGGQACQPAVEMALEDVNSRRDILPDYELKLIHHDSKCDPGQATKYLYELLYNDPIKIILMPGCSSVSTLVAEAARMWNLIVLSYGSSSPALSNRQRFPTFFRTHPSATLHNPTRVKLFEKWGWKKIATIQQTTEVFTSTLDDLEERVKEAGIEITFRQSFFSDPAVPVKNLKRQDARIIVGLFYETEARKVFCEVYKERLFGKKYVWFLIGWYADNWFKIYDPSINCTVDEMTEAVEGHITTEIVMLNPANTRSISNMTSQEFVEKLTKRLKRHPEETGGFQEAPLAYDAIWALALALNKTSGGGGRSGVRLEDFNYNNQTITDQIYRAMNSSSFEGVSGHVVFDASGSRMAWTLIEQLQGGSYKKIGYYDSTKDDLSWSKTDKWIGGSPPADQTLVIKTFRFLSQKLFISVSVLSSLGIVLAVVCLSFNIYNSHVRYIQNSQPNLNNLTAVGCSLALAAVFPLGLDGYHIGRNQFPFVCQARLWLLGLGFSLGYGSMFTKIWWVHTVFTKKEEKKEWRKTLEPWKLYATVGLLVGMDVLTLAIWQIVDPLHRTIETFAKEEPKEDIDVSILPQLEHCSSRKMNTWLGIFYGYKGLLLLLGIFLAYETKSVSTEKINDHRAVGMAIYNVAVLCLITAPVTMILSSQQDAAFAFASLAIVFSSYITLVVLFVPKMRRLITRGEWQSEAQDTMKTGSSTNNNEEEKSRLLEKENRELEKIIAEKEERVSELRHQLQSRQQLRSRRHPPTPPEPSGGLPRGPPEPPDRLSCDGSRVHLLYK
Sequence (O75899 42-941): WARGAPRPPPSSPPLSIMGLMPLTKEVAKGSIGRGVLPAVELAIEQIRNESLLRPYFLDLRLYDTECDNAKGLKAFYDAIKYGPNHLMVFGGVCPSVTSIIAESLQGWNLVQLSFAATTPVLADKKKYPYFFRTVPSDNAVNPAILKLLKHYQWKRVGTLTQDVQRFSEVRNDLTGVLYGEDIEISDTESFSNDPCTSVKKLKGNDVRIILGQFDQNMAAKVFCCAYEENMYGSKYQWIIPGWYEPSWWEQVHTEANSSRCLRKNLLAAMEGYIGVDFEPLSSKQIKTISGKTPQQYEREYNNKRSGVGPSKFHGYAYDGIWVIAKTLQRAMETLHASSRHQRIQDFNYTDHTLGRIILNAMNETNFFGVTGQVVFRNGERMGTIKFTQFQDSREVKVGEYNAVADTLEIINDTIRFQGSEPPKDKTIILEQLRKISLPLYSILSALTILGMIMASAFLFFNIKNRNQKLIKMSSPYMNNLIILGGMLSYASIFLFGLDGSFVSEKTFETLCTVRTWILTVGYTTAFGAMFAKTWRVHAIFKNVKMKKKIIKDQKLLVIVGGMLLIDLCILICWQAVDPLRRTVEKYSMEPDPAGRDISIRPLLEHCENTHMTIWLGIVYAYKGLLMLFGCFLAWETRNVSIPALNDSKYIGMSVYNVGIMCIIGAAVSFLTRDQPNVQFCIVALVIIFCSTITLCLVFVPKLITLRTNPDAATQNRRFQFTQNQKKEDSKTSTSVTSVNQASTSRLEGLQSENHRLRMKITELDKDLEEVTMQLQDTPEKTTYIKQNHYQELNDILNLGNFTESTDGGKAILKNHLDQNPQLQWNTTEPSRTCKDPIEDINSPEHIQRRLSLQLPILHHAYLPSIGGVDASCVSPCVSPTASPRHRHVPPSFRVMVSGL
Experiment: Potentiation of GABA dose-response, FLIPR calcium assay
Format: cell-based
Conditions: compound at 10 μM; EC50 of GABA divided by EC50 of GABA in the presence of positive allosteric modulator
Number in fold, nothing else.

Record CCn1c(=O)n(Cc2ccc(Br)cc2)c(=O)c2ccc(F)cc21 has human GABAB1 and GABAB2 receptor subunits (Homo sapiens, UniProt O75899+Q9UBS5) Potentiation of GABA (fold) equal to 3.3

Record CC(C(N)=O)n1c(=O)n(Cc2ccc(Br)cc2)c(=O)c2ccc(F)cc21 (centres unmarked) has human GABAB1 and GABAB2 receptor subunits (Homo sapiens, UniProt O75899+Q9UBS5) Potentiation of GABA (fold) equal to 1.9

Record Cn1c(=O)n(C2(c3ccc(Cl)cc3)CC2)c(=O)c2ccc(F)cc21 has human GABAB1 and GABAB2 receptor subunits (Homo sapiens, UniProt O75899+Q9UBS5) Potentiation of GABA (fold) equal to 3.8

Record CC(C)(O)Cn1c(=O)n(Cc2ccc(Cl)cc2)c(=O)c2cc(Cl)cc(F)c21 has human GABAB1 and GABAB2 receptor subunits (Homo sapiens, UniProt O75899+Q9UBS5) Potentiation of GABA (fold) equal to 42.6

Record Cn1c(=O)n(Cc2ccc(Br)cc2)c(=O)c2ccc(F)cc21 has human GABAB1 and GABAB2 receptor subunits (Homo sapiens, UniProt O75899+Q9UBS5) Potentiation of GABA (fold) equal to 4.8

Record CC(C)(O)Cn1c(=O)n(Cc2ccc(Br)cc2)c(=O)c2cc(F)c(F)c(F)c21 has human GABAB1 and GABAB2 receptor subunits (Homo sapiens, UniProt O75899+Q9UBS5) Potentiation of GABA (fold) equal to 89

Record CC1(C)Cn2c(=O)n(Cc3ccc(Br)cc3)c(=O)c3cc(F)c(F)c(c32)O1 has human GABAB1 and GABAB2 receptor subunits (Homo sapiens, UniProt O75899+Q9UBS5) Potentiation of GABA (fold) equal to 12.7

Record CC(C)(O)Cn1c(=O)n(Cc2ccc(Cl)c(Oc3ccccc3)c2)c(=O)c2ccc(F)cc21 has human GABAB1 and GABAB2 receptor subunits (Homo sapiens, UniProt O75899+Q9UBS5) Potentiation of GABA (fold) equal to 2.8

* * *

Target: human GABAB1 and GABAB2 receptor subunits (Homo sapiens, UniProt O75899+Q9UBS5)
Construct: expressed in transfected cells; host or cells: CHO cells
Assay: Agonism and positive allosteric modulator pharmacology in vitro, two-addition FLIPR calcium assay
Format: cell-based
Conditions: CHO cells co-expressing Galpha16; agonism efficacy at 30 μM / GABA efficacy at 30 μM
parameter: IA (GABAB agonism)
Just the number.

compound Cn1c(=O)n(Cc2ccc(Br)cc2)c(=O)c2ccc(Cl)cc21 , IA (GABAB agonism) observed: 0.06

compound Cn1c(=O)n(Cc2ccc([N+](=O)[O-])cc2)c(=O)c2ccc(F)cc21 , IA (GABAB agonism) observed: 0.04

compound CC(C)(O)Cn1c(=O)n(Cc2ccc(Br)cc2)c(=O)c2ccc(F)cc21 , IA (GABAB agonism) observed: 0.30

compound C[C@H](c1ccc(Cl)cc1)n1c(=O)c2ccc(Cl)cc2n(CC(C)(C)O)c1=O , IA (GABAB agonism) observed: 0.09
